# assay_system: Cytochrome P450 1A2 (Homo sapiens, UniProt P05177)
# Sequence (P05177 whole entry): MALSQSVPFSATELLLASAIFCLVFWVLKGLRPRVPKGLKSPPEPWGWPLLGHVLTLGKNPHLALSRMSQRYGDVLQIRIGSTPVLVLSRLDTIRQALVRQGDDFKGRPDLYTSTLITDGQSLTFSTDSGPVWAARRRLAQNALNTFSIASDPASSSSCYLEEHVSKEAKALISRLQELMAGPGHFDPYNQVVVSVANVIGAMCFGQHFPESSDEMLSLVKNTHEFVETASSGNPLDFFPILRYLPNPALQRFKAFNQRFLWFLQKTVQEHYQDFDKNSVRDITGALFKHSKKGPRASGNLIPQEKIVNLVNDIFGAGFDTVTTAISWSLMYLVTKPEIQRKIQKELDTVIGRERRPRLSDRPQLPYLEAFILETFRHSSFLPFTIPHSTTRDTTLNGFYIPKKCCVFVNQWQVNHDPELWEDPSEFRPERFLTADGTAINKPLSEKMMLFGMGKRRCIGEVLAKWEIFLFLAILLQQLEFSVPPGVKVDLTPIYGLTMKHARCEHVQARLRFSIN
# method_notes: Human Liver Microsomal CYP Inhibition Test
# Excerpt: […]
parameter_measured: IC50

Request: Indicate the recorded IC50 value for this compound: COc1c([C@H]2[C@H](C(=O)Nc3ccc[n+]([O-])c3)C[C@@](C)(C(F)(F)F)[C@H]2C)ccc(F)c1F [US20250296922, Compound 7]
Response: > 50 µM

====

# assay_system: Cytochrome P450 2D6 (Homo sapiens)
# Sequence (P10635 whole entry): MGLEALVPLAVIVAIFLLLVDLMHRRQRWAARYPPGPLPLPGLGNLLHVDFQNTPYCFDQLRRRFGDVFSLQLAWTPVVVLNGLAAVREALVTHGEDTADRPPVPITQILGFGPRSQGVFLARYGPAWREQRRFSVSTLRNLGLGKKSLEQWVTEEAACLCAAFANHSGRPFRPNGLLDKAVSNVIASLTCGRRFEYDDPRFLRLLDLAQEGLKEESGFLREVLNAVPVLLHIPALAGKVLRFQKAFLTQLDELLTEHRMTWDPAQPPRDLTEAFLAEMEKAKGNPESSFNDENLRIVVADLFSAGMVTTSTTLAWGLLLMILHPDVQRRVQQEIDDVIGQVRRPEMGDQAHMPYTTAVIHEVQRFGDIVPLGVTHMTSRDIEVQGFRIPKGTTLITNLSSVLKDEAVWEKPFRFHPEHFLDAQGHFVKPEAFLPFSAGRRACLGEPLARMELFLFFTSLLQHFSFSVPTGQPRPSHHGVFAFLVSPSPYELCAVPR
# method_notes: Human Liver Microsomal CYP Inhibition Test
pIC50: −log10 of the molar value.
parameter_measured: pIC50

Request: Indicate the recorded pIC50 value for this molecule: `COc1c([C@H]2[C@H](C(=O)Nc3ccc[n+]([O-])c3)C[C@@](C)(C(F)(F)F)[C@H]2C)ccc(F)c1F`
Response: < 4.30

====

# assay_system: Cytochrome P450 2C19 (Homo sapiens)
# Sequence (P33261 whole entry): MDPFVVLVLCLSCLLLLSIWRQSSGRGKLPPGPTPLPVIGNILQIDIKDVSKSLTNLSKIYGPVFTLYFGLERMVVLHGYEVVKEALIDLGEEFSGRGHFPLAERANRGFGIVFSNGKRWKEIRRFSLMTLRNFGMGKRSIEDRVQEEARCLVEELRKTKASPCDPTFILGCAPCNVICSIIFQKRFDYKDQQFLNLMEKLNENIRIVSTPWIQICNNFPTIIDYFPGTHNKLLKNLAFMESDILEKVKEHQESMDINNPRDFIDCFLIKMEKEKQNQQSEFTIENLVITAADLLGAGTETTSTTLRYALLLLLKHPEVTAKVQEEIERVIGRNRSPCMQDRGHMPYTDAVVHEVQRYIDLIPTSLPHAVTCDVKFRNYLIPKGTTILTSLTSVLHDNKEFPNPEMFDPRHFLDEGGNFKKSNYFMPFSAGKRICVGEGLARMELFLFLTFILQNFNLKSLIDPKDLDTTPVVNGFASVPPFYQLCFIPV
# method_notes: Human Liver Microsomal CYP Inhibition Test
parameter_measured: pIC50
Answers are plain numbers, as −log10 of the molar value.

Request: Indicate the recorded pIC50 value for this compound: `COc1c([C@H]2[C@H](C(=O)Nc3ccc[n+]([O-])c3)C[C@@](C)(C(F)(F)F)[C@H]2C)ccc(F)c1F`
Response: 5.67

====

# assay_system: Cytochrome P450 2C9 (Homo sapiens)
# Sequence (P11712 whole entry): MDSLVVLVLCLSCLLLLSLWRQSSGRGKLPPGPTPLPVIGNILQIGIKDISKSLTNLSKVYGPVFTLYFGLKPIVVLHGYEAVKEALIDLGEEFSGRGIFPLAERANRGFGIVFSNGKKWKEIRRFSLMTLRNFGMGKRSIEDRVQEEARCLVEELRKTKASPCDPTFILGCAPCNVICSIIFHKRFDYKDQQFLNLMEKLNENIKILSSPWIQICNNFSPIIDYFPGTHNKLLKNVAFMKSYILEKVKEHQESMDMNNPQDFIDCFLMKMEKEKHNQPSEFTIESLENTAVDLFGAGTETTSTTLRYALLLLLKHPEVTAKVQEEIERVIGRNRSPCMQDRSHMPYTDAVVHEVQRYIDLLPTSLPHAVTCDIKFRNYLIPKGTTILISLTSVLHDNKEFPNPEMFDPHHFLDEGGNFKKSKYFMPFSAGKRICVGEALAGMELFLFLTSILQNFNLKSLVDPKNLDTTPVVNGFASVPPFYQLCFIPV
# method_notes: Human Liver Microsomal CYP Inhibition Test
parameter_measured: IC50

Request: Indicate the recorded IC50 value for this compound: `COc1c([C@H]2[C@H](C(=O)Nc3ccc[n+]([O-])c3)C[C@@](C)(C(F)(F)F)[C@H]2C)ccc(F)c1F`
Response: > 50 µM
